# Lookup of reported viability, T/C keyed by entry
tested on: 521955-158-R2-J5-PDC complex spheroid growth, % test/control; assay: Anticancer human tumor 521955-158-R2-J5-PDC patient-derived pancreatic carcinoma cell line growth inhibition [Asc]; conditions: second compound 0.316 µM; first compound 3.16 µM; hits give low values
endpoint-label: viability, T/C (%)

| compound | target-of-assay | endpoint-label | reported |
| --- | --- | --- | --- |
| C=C(F)C(=O)N1CCN(c2nc(OCC3CCCN3C)nc3c2CCN(c2cccc4cccc(Cl)c24)C3)CC1CC#N (stereo not drawn) + Cc1c(S(C)(=O)=O)c(-c2cc(F)cc(N3CCN(c4ccc(NS(=O)(=O)c5ccc(NC(CCN6CCC(C(=O)OCCCP(=O)(O)O)CC6)CSc6ccccc6)c(S(=O)(=O)C(F)(F)F)c5)cc4)CC3)c2)c(-c2ccc(Cl)cc2)n1C(C)C | 521955-158-R2-J5-PDC complex spheroid growth, % test/control | viability, T/C | 95.5 |
| C=C(F)C(=O)N1CCN(c2nc(OCC3CCCN3C)nc3c2CCN(c2cccc4cccc(Cl)c24)C3)CC1CC#N (stereo not drawn) + CNC(C)C(=O)NC1CN(S(=O)(=O)c2cccc(S(=O)(=O)N3CCC4CCC(C(=O)NC(c5ccccc5)c5ccccc5)N4C(=O)C(NC(=O)C(C)NC)C3)c2)CCC2CCC(C(=O)NC(c3ccccc3)c3ccccc3)N2C1=O | 521955-158-R2-J5-PDC complex spheroid growth, % test/control | viability, T/C | 99 |
| C#Cc1c(F)ccc2cc(O)cc(-c3ncc4c(N5CC6CCC(C5)N6)nc(OCC56CCCN5CC(F)C6)nc4c3F)c12 (stereo not drawn) + CNC(C)C(=O)NC1CN(S(=O)(=O)c2cccc(S(=O)(=O)N3CCC4CCC(C(=O)NC(c5ccccc5)c5ccccc5)N4C(=O)C(NC(=O)C(C)NC)C3)c2)CCC2CCC(C(=O)NC(c3ccccc3)c3ccccc3)N2C1=O | 521955-158-R2-J5-PDC complex spheroid growth, % test/control | viability, T/C | 17.3 |
| O=C(c1cc(Cc2n[nH]c(=O)c3ccccc23)ccc1F)N1CCN(C(=O)C2CC2)CC1 + CNC(C)C(=O)NC1CN(S(=O)(=O)c2cccc(S(=O)(=O)N3CCC4CCC(C(=O)NC(c5ccccc5)c5ccccc5)N4C(=O)C(NC(=O)C(C)NC)C3)c2)CCC2CCC(C(=O)NC(c3ccccc3)c3ccccc3)N2C1=O | 521955-158-R2-J5-PDC complex spheroid growth, % test/control | viability, T/C | 71.5 |
| C=CC(=O)N1CCN(c2nc(=O)n(-c3c(C)ccnc3C(C)C)c3nc(-c4c(O)cccc4F)c(F)cc23)C(C)C1 (stereo not drawn) + CNC(C)C(=O)NC1CN(S(=O)(=O)c2cccc(S(=O)(=O)N3CCC4CCC(C(=O)NC(c5ccccc5)c5ccccc5)N4C(=O)C(NC(=O)C(C)NC)C3)c2)CCC2CCC(C(=O)NC(c3ccccc3)c3ccccc3)N2C1=O | 521955-158-R2-J5-PDC complex spheroid growth, % test/control | viability, T/C | 106 |
| O=C(c1cc(Cc2n[nH]c(=O)c3ccccc23)ccc1F)N1CCN(C(=O)C2CC2)CC1 + Cc1c(S(C)(=O)=O)c(-c2cc(F)cc(N3CCN(c4ccc(NS(=O)(=O)c5ccc(NC(CCN6CCC(C(=O)OCCCP(=O)(O)O)CC6)CSc6ccccc6)c(S(=O)(=O)C(F)(F)F)c5)cc4)CC3)c2)c(-c2ccc(Cl)cc2)n1C(C)C | 521955-158-R2-J5-PDC complex spheroid growth, % test/control | viability, T/C | 70.1 |
| C#Cc1c(F)ccc2cc(O)cc(-c3ncc4c(N5CC6CCC(C5)N6)nc(OCC56CCCN5CC(F)C6)nc4c3F)c12 (stereo not drawn) + Cc1c(S(C)(=O)=O)c(-c2cc(F)cc(N3CCN(c4ccc(NS(=O)(=O)c5ccc(NC(CCN6CCC(C(=O)OCCCP(=O)(O)O)CC6)CSc6ccccc6)c(S(=O)(=O)C(F)(F)F)c5)cc4)CC3)c2)c(-c2ccc(Cl)cc2)n1C(C)C | 521955-158-R2-J5-PDC complex spheroid growth, % test/control | viability, T/C | 32.5 |
| C=CC(=O)N1CCN(c2nc(=O)n(-c3c(C)ccnc3C(C)C)c3nc(-c4c(O)cccc4F)c(F)cc23)C(C)C1 (stereo not drawn) + Cc1c(S(C)(=O)=O)c(-c2cc(F)cc(N3CCN(c4ccc(NS(=O)(=O)c5ccc(NC(CCN6CCC(C(=O)OCCCP(=O)(O)O)CC6)CSc6ccccc6)c(S(=O)(=O)C(F)(F)F)c5)cc4)CC3)c2)c(-c2ccc(Cl)cc2)n1C(C)C | 521955-158-R2-J5-PDC complex spheroid growth, % test/control | viability, T/C | 111 |

---

Recorded viability, T/C, one value per entry.
test system: 521955-158-R2-J5-PDC complex spheroid growth, % test/control; assay: Anticancer human tumor 521955-158-R2-J5-PDC cell line growth inhibition [Asc]; settings: second compound 0.0949 µM; first compound 0.01 µM; hits give low values;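 also: spheroids exposed to agents for 7 days before readout; 100% = DMSO vehicle control viability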
endpoint-label: viability, T/C (%)

| compound | target-of-assay | reported |
| --- | --- | --- |
| CNC(C)C(=O)NC1CN(S(=O)(=O)c2cccc(S(=O)(=O)N3CCC4CCC(C(=O)NC(c5ccccc5)c5ccccc5)N4C(=O)C(NC(=O)C(C)NC)C3)c2)CCC2CCC(C(=O)NC(c3ccccc3)c3ccccc3)N2C1=O (stereo unspecified) + CCN1C(C(=O)NC23CCC(C(=O)O)(CC2)CC3)C(c2cccc(Cl)c2F)C2(C(=O)Nc3cc(Cl)ccc32)C12CCCCC2 | 521955-158-R2-J5-PDC complex spheroid growth, % test/control | 95.8 |
| O=C(c1ccc(F)c(F)c1Nc1ccc(I)cc1F)N1CC(O)([C@@H]2CCCCN2)C1 + CCN1C(C(=O)NC23CCC(C(=O)O)(CC2)CC3)C(c2cccc(Cl)c2F)C2(C(=O)Nc3cc(Cl)ccc32)C12CCCCC2 | 521955-158-R2-J5-PDC complex spheroid growth, % test/control | 80.1 |
| CCN1CCN(Cc2ccc(Nc3ncc(F)c(-c4cc(F)c5nc(C)n(C(C)C)c5c4)n3)nc2)CC1 + CCN1C(C(=O)NC23CCC(C(=O)O)(CC2)CC3)C(c2cccc(Cl)c2F)C2(C(=O)Nc3cc(Cl)ccc32)C12CCCCC2 | 521955-158-R2-J5-PDC complex spheroid growth, % test/control | 79.8 |
| NC1CCC(NC2CC2c2ccccc2)CC1 (stereo unspecified) + CCN1C(C(=O)NC23CCC(C(=O)O)(CC2)CC3)C(c2cccc(Cl)c2F)C2(C(=O)Nc3cc(Cl)ccc32)C12CCCCC2 | 521955-158-R2-J5-PDC complex spheroid growth, % test/control | 59.3 |
| Cn1ncnc1[C@H]1c2n[nH]c(=O)c3cc(F)cc(c23)N[C@@H]1c1ccc(F)cc1 + CCN1C(C(=O)NC23CCC(C(=O)O)(CC2)CC3)C(c2cccc(Cl)c2F)C2(C(=O)Nc3cc(Cl)ccc32)C12CCCCC2 | 521955-158-R2-J5-PDC complex spheroid growth, % test/control | 71.7 |
| COc1c(OCCCN2CCOCC2)ccc2c3n(c(=NC(=O)c4cnc(N)nc4)nc12)CCN3 + CCN1C(C(=O)NC23CCC(C(=O)O)(CC2)CC3)C(c2cccc(Cl)c2F)C2(C(=O)Nc3cc(Cl)ccc32)C12CCCCC2 | 521955-158-R2-J5-PDC complex spheroid growth, % test/control | 47.8 |

---

system: 521955-158-R2-J5-PDC complex spheroid growth, % test/control; test: Anticancer human tumor 521955-158-R2-J5-PDC cell line growth inhibition [Asc]; details: second compound 1 µM; first compound 1 µM; hits give low values;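 also: spheroids exposed to agents for 7 days before readout; 100% = DMSO vehicle control viability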

| compound | target-of-assay | viability, T/C, % |
| --- | --- | --- |
| C=CC(=O)N1CCN(c2nc(=O)n(-c3c(C)ccnc3C(C)C)c3nc(-c4c(O)cccc4F)c(F)cc23)C(C)C1 (stereo not drawn) + CNC(C)C(=O)NC1CN(S(=O)(=O)c2cccc(S(=O)(=O)N3CCC4CCC(C(=O)NC(c5ccccc5)c5ccccc5)N4C(=O)C(NC(=O)C(C)NC)C3)c2)CCC2CCC(C(=O)NC(c3ccccc3)c3ccccc3)N2C1=O | 521955-158-R2-J5-PDC complex spheroid growth, % test/control | 109 |
| C#Cc1c(F)ccc2cc(O)cc(-c3ncc4c(N5CC6CCC(C5)N6)nc(OCC56CCCN5CC(F)C6)nc4c3F)c12 (stereo not drawn) + Cc1c(S(C)(=O)=O)c(-c2cc(F)cc(N3CCN(c4ccc(NS(=O)(=O)c5ccc(NC(CCN6CCC(C(=O)OCCCP(=O)(O)O)CC6)CSc6ccccc6)c(S(=O)(=O)C(F)(F)F)c5)cc4)CC3)c2)c(-c2ccc(Cl)cc2)n1C(C)C | 521955-158-R2-J5-PDC complex spheroid growth, % test/control | 31.8 |
| C=CC(=O)N1CCN(c2nc(=O)n(-c3c(C)ccnc3C(C)C)c3nc(-c4c(O)cccc4F)c(F)cc23)C(C)C1 (stereo not drawn) + Cc1c(S(C)(=O)=O)c(-c2cc(F)cc(N3CCN(c4ccc(NS(=O)(=O)c5ccc(NC(CCN6CCC(C(=O)OCCCP(=O)(O)O)CC6)CSc6ccccc6)c(S(=O)(=O)C(F)(F)F)c5)cc4)CC3)c2)c(-c2ccc(Cl)cc2)n1C(C)C | 521955-158-R2-J5-PDC complex spheroid growth, % test/control | 95.7 |
